Recorded values, source patent US6458194B1.

experiment: Absorption characteristic in ethyl acetate; type: physicochemical
quantity: Wave length giving the maximum absorption (λmax) (nm)

compound_smiles	unit_of_measurement	numeric_result
CCS(=O)(=O)c1nsc(N=Nc2c(-c3ccccc3Cl)nn3nc(C(C)C)[nH]c23)n1	nm	440
CCSc1nsc(N=Nc2c(C)nn3nc(C)[nH]c23)n1	nm	434
CC(C)c1nn2nc(-c3ccccc3Cl)c(N=Nc3nc(-c4ccccc4)ns3)c2[nH]1	nm	428
CCSc1nsc(N=Nc2c(C(C)(C)C)nn3nc(C(C)C)[nH]c23)n1	nm	438
CCS(=O)(=O)c1nsc(N=Nc2c(C(C)(C)C)nn3nc(C(C)C)[nH]c23)n1	nm	442

---

assay: Color fastness against light, Xe lamp irradiation of recorded image; type: physicochemical; details: Xe lamp 17,000 lux, 3 days; portion with initial reflection density 1.0
Form field: Color Fastness (residual rate of status-A reflection density) (one value per entry).
quantity: Color Fastness (residual rate of status-A reflection density) (%)

compound	numeric_result
CSc1nsc(N=Nc2c(C(C)(C)C)nn3nc(C(C)CN4C(=O)C=CC4=O)[nH]c23)n1 (stereo not drawn)	90
Cc1nn2nc(C(C)(C)C)c(N=Nc3nc(-c4ccccc4)ns3)c2[nH]1	90
CSc1nsc(N=Nc2c(C(C)(C)C)nn3nc(C(C)CN4C(=O)c5ccccc5C4=O)[nH]c23)n1 (stereo not drawn)	89
CSc1nsc(N=Nc2c(C(C)(C)C)nn3nc(C(C)C)[nH]c23)n1	90
CC(C)c1nn2nc(-c3ccccc3Cl)c(N=Nc3nc(-c4ccccc4)ns3)c2[nH]1	92
COc1ccc(-c2nsc(N=Nc3c(C(C)(C)C)nn4nc(C(C)C)[nH]c34)n2)cc1	88
CCSc1nsc(/N=N/c2c(-c3ccccc3Cl)nn3nc(C(C)C)[nH]c23)n1	91
Cc1nn2nc(C(C)C)c(N=Nc3nc(-c4ccccc4)ns3)c2[nH]1	87
CCSc1nsc(N=Nc2c(C)nn3c(C(C)(C)C)n[nH]c23)n1 [Comparative Compound “a”, reference compound]	89
CCSc1nsc(N=Nc2c(C(C)(C)C)nn3nc(C(C)C)[nH]c23)n1	90
CCS(=O)(=O)c1nsc(N=Nc2c(-c3ccccc3Cl)nn3nc(C(C)C)[nH]c23)n1	91
CCCc1nn2nc(C(C)(C)C)c(N=Nc3nc(SC)ns3)c2[nH]1	91
CCOc1nn2nc(C)[nH]c2c1N=Nc1nc(-c2ccc(C(F)(F)F)cc2)ns1	88
CCS(=O)(=O)c1nsc(N=Nc2c(C(C)(C)C)nn3nc(C(C)C)[nH]c23)n1	93
CSc1nsc(N=Nc2c(-c3ccccc3)nn3nc(C(C)C)[nH]c23)n1	90
